Quick reference: TGI of the listed items.
# Tested on: HS 578T breast
# measurementProtocol: NCI tumour cell line growth inhibition, 48 h

compound: O=C(Nc1ncc(Cc2cccc(C(F)(F)F)c2)s1)c1ccc2c(c1)OCCO2
targetOrTestSystem: HS 578T breast
TGI: > 66.4 µM
//
compound: Clc1ccc(C=NC23CC4CC(CC(C4)C2)C3)c(Cl)c1
targetOrTestSystem: HS 578T breast
TGI: > 10 µM
//
compound: Nc1ncc2c(n1)-c1ccccc1OC2N1CCCC1 (centres undefined)
targetOrTestSystem: HS 578T breast
TGI: > 100 µM
//
compound: CNc1cc2oc(=O)cc(C)c2cc1C
targetOrTestSystem: HS 578T breast
TGI: > 100 µM
//
compound: CC(C)(CO)CNc1nc(N)nc(Cl)c1/C=N/O
targetOrTestSystem: HS 578T breast
TGI: > 100 µM
//
compound: Cc1ccc2c(c1)c1ccc3c(c1n2C)C(=O)C=CC3=O
targetOrTestSystem: HS 578T breast
TGI: 8.66 µM
//
compound: CCOC(=O)C(NC(=O)CC)(N1CCN(c2cc3c(cc2F)c(=O)c(C(=O)O)cn3C2CC2)CC1)C(F)(F)F (centres undefined)
targetOrTestSystem: HS 578T breast
TGI: > 100 µM
//
compound: O=C(O)c1ccc(CNCc2ccccc2)cc1
targetOrTestSystem: HS 578T breast
TGI: > 100 µM
//
compound: C=C(C)[C@@H]1CC[C@]2(CN)CC[C@]3(C)[C@H](CC[C@@H]4[C@@]5(C)CCCNC(C)(C)[C@@H]5CC[C@]43C)[C@@H]12
targetOrTestSystem: HS 578T breast
TGI: 4 µM
//
compound: CCN(CC)c1ccc(/C=C/c2ccnc3ccccc23)cc1
targetOrTestSystem: HS 578T breast
TGI: > 100 µM
//
compound: CCOc1c(OC)cc(-c2nc3n(n2)C(=O)C(CC)S3)cc1OC (centres undefined)
targetOrTestSystem: HS 578T breast
TGI: > 10 µM
//
compound: O=C(CCSC1=NCCCN1)c1ccc(F)cc1
targetOrTestSystem: HS 578T breast
TGI: 62.6 µM
//
compound: Nc1ncnc2c1ccn2C/C=C/CO
targetOrTestSystem: HS 578T breast
TGI: > 100 µM
//
compound: COc1cc(Nc2ccc3c(c2)CCC3)nc(OC)n1
targetOrTestSystem: HS 578T breast
TGI: 42.6 µM
//
compound: COc1ccc(N2C(=O)C3c4[nH]c5cc(C)ccc5c4C4CCC(C(C)(C)C)CC4C3C2=O)cc1 (centres undefined)
targetOrTestSystem: HS 578T breast
TGI: > 10 µM
//
compound: COc1cccc2c1O/C(=C\c1ccc([N+](=O)[O-])s1)C2=O
targetOrTestSystem: HS 578T breast
TGI: > 32.1 µM
//
compound: CCN(CCNS(C)(=O)=O)c1ccc(N)c(C)c1
targetOrTestSystem: HS 578T breast
TGI: > 100 µM
//
compound: CC(C(=O)COCc1ccccc1)P1(=O)OC(C)(C)CN1C(C)(C)C (centres undefined)
targetOrTestSystem: HS 578T breast
TGI: > 100 µM
//
compound: N#CC(I)CS(=O)(=O)c1ccccc1 (centres undefined)
targetOrTestSystem: HS 578T breast
TGI: 61.4 µM

###

# Test system: SW-620 colon
# measurementProtocol: NCI tumour cell line growth inhibition, 48 h
quantityKind: TGI

molecule: CCOC(=O)C(NC(=O)CC)(N1CCN(c2cc3c(cc2F)c(=O)c(C(=O)O)cn3C2CC2)CC1)C(F)(F)F (stereo not drawn)
targetOrTestSystem: SW-620 colon
reportedResult: > 100 µM

molecule: Cc1ccnc(NC(=S)Nc2ccc([N+](=O)[O-])cc2)c1
targetOrTestSystem: SW-620 colon
reportedResult: > 100 µM

molecule: COC(=N)c1csc(C2OC(CO)C(O)C2O)n1 (stereo not drawn)
targetOrTestSystem: SW-620 colon
reportedResult: > 100 µM

Recorded values, source PubChem BioAssay (NCI).
